- Test system: Hepatotoxicity
- Measurement Protocol: FDA HLAED, serum glutamic pyruvic transaminase (SGPT) increase
- Run Conditions: human
Measure: SGPT Increase - Index Value
One number for each entry.

• CCOC(=O)[C@H](CCc1ccccc1)N[C@@H](C)C(=O)N1[C@H](C(=O)O)C[C@@H]2CCC[C@@H]21 = 0.5

For each of the compounds below, state SGPT Increase - Index Value.
1. N=C(N)N/N=C/c1c(Cl)cccc1Cl
2. OC[C@H]1O[C@@H](n2cnc3c2NC=NC[C@H]3O)C[C@@H]1O

Out:
1. 0.6
2. 0

###

- Test system: Hepatotoxicity
- Measurement Protocol: FDA HLAED, serum glutamic oxaloacetic transaminase (SGOT) increase
- Run Conditions: human
Measure: SGOT Increase - Number of Reports

* CCCCC(=O)N(Cc1ccc(-c2ccccc2-c2nnn[nH]2)cc1)[C@H](C(=O)O)C(C)C | < 4
* CCCCCCCCCCC(=O)O[C@H]1CC[C@H]2[C@@H]3CCc4cc(O)ccc4[C@H]3CC[C@]12C [ESTRADIOL UNDECYLATE] | >= 4
* COCCc1ccc(OCC(O)CNC(C)C)cc1 (stereo unspecified) [METOPROLOL] | >= 4
* Nc1ccn([C@@H]2O[C@H](CO)[C@@H](O)C2(F)F)c(=O)n1 [GEMCITABINE] | < 4
* COc1cc2c(cc1OC)[C@@H](Cc1cc(OC)c(OC)c(OC)c1)[N+](C)(CCCOC(=O)CC/C=C/CCC(=O)OCCC[N+]1(C)CCc3cc(OC)c(OC)cc3[C@H]1Cc1cc(OC)c(OC)c(OC)c1)CC2.[Cl-].[Cl-] (stereo partly specified) [MIVACURIUM CHLORIDE] | < 4

For each of the compounds below, state SGOT Increase - Number of Reports.
1. Cc1ccc(-c2nc3ccc(C)cn3c2CC(=O)N(C)C)cc1 [ZOLPIDEM]
2. O=C1CN(/N=C/c2ccc([N+](=O)[O-])o2)C(=O)N1 [NITROFURANTOIN]
3. CCCNCC(O)COc1ccccc1C(=O)CCc1ccccc1 (stereo unspecified) [PROPAFENONE]
4. C[C@@H](CN1CC(=O)NC(=O)C1)N1CC(=O)NC(=O)C1 [DEXRAZOXANE]
5. NC(=O)OCC(COC(N)=O)c1ccccc1 [FELBAMATE]
6. CCC(=O)O[C@H]1CC[C@H]2[C@@H]3CCC4=CC(=O)CC[C@]4(C)[C@H]3CC[C@]12C [TESTOSTERONE PROPIONATE]

Out:
>= 4
>= 4
>= 4
< 4
>= 4
< 4

###

- Test system: Hepatotoxicity
- Measurement Protocol: FDA HLAED, gamma-glutamyl transferase (GGT) increase
- Run Conditions: human
Please respond with reported GGT Increase - Index Value for every item in the list.
Numbers only.

For each of the compounds below, state GGT Increase - Index Value.
1. CN(C)CCC=C1c2ccccc2COc2ccccc21 [DOXEPIN]
2. CC(=O)NO [ACETOHYDROXAMIC ACID]

Out:
434.8
0

For each of the compounds below, state GGT Increase - Index Value.
1. CC(CCc1ccccc1)NCC(O)c1ccc(O)c(C(N)=O)c1 (centres undefined) [LABETALOL]
2. CC(C)NCC(O)COc1ccc(CC(N)=O)cc1 (centres undefined) [ATENOLOL]

Out:
1. 0
2. 0
